Attribute: Pain threshold (g) 1 h after the treatment
- Tested on: CFA-induced mechanical hyperalgesia in rats
- method.description: CFA-induced mechanical hyperalgesia in rats
- Format: in vivo, rat
- experimental.setup: male CD rats, dose 10^-5 mol/kg, test 23 hours after injecting the CFA, 1 h after treatment; vehicle 120 ± 6.1, normal animals 155±2.1 g
# number only, unit g dropped from output

Recorded results for 5 molecules are shown here.
# mol.smiles, numeric.readout
data = [
    ("CC(C)n1nc(C(=O)NCC2CCN(CC(=O)Nc3ccc(N)cc3)CC2)c2ccccc21.Cl.Cl", 154),
    ("CC(C)n1nc(C(=O)NCC2CCN(CC(=O)Nc3ccc(O)cc3)CC2)c2ccccc21.Cl", 164),
    ("CC(C)n1nc(C(=O)NCC2CCN(CC(=O)Nc3ccccc3)CC2)c2ccccc21.Cl", 175),
    ("CC(C)n1nc(C(=O)NCC2CCN(CC(=O)Nc3ccc([N+](=O)[O-])cc3)CC2)c2ccccc21", 168),
    ("Cc1ccc2[nH]nc(C(=O)NCC3CCN(CC(=O)Nc4ccccc4)CC3)c2c1.Cl", 202),
]

What value of Pain threshold (g) 1 h after the treatment has been reported for the following molecule? Cl.O=C(CN1CCC(CNC(=O)c2nn(Cc3ccccc3)c3ccccc23)CC1)Nc1ccccc1
170

What value of Pain threshold (g) 1 h after the treatment has been reported for the following molecule? Cc1ccc2c(c1)c(C(=O)NCC1CCN(CC(=O)Nc3ccccc3)CC1)nn2C(C)C.Cl
167

What value of Pain threshold (g) 1 h after the treatment has been reported for the following molecule? Cc1cccc(C)c1NC(=O)CN1CCC(CNC(=O)c2nn(C(C)C)c3ccccc23)CC1.O=C(O)C(=O)O
174

---

- Test system: CFA-induced mechanical hyperalgesia in rats
- method.description: CFA-induced mechanical hyperalgesia in rats
- Assay type: in vivo, rat
- experimental.setup: male CD rats, dose 10^-5 mol/kg, test 23 hours after injecting the CFA, 1 h after treatment; vehicle 120 ± 6.1, normal animals 155±2.1 g
measure: Pain threshold (g) 1 h after the treatment
# number only, unit g dropped from output

What value of Pain threshold (g) 1 h after the treatment has been reported for the following compound? CC(C)n1nc(C(=O)NCC2CCN(CC(=O)Nc3ccc(OCc4ccccc4)cc3)CC2)c2ccccc21
156

What value of Pain threshold (g) 1 h after the treatment has been reported for the following compound? Cc1ccc(S(=O)(=O)O)cc1.O=C(CN1CCC(CNC(=O)c2n[nH]c3ccccc23)CC1)Nc1ccccc1
185

What value of Pain threshold (g) 1 h after the treatment has been reported for the following compound? CC(C)n1nc(C(=O)NCC2CCN(CC(=O)Nc3ccc(N(C)C)cc3)CC2)c2ccccc21.Cl.Cl
151
